Please find below pIC50 measurements for Insulin receptor (Homo sapiens, UniProt P06213), combined from several publications.
pIC50: −log10 of the molar value.

given-smiles | meas-value
CCOc1cc(Br)cc(/C=C2\SC(=O)NC2=O)c1O | < 4.00
c1ccc(-c2ccc3cnc(Nc4ccc(N5CCOCC5)cc4)nn23)cc1 | 6.71

Now consider the entry below.
Look up Insulin receptor (Homo sapiens, UniProt P06213) data: pIC50 of CN1CCN(CCCNc2ncc3cc(-c4c(Cl)cccc4Cl)c(NC(=O)NC(C)(C)C)nc3n2)CC1 , then report it.
< 4.30

====

Please find below IC50 measurements for Insulin receptor (Homo sapiens), combined from several publications.

Field: example entries. Status: answers known.
given-smiles | measurement-label | meas-value
Clc1cc(Nc2ncnc3ccsc23)ccc1-c1nc2ccccc2s1 | IC50 | > 10 µM
CC(C)(C)NC(=O)Nc1nc2nc(N)ncc2cc1-c1ccccc1 | IC50 | > 50 µM

Now consider the entry below.
Please give measured IC50 of the following entry: CCCc1cc(N2CCC(N)CC2)nc2sc(C(N)=O)c(N)c12
> 7 µM

====

Please find below IC50 measurements for Insulin receptor (Homo sapiens), combined from several publications.

Field: example entries. Status: answers known.
given-smiles | meas-value
CN(C(=O)c1ccccc1)c1ccc2c(c1)nc(NC(=O)c1ccc(-c3nccs3)s1)n2CCC(N)=O | > 6 µM
CC(C)(C(=O)NCCn1ccc2ncnc(Nc3ccc(Oc4cccc(Cl)c4)c(Cl)c3)c21)S(C)(=O)=O.Cc1ccc(S(=O)(=O)O)cc1 | > 10 µM
CCOc1ccc(Nc2ncc3c(n2)-c2ncccc2NC(=O)C3)cc1 | > 100 µM
CCOc1cc(/C=C2/SC(=O)NC2=O)cc(Br)c1O | > 100 µM
COC(=O)c1cccc(Oc2nc[nH]c(=O)c2CCC(C)=O)c1 | > 40 µM

Look up Insulin receptor (Homo sapiens) data: IC50 of O=C1Cc2cc3c(=O)[nH]c(=O)[nH]c3nc2-c2ncccc2N1 , then report it.
> 100 µM

====

pIC50: −log10 of the molar value.
Please find below pIC50 measurements for Insulin receptor (Homo sapiens), combined from several publications.

Field: example entries. Status: answers known.
compound | pIC50
COc1ccc(C(=O)Nc2nc3cc(N(C)C(=O)c4ccccc4)ccc3n2CCC(N)=O)cc1 | < 5.22
CN(C(=O)c1ccccc1)c1ccc2c(c1)[nH]/c(=N\C(=O)c1ccc(-c3ccncc3)s1)n2CCC(N)=O | < 5.22
CCCCn1c2ccc(C3CCCCO3)cc2c2c3c(c4c(c21)CCc1nn(C)cc1-4)C(=O)NC3 (racemic) | < 6.00
O=C1Cc2cc3c(=O)[nH]c(=O)[nH]c3nc2-c2ccccc2N1 | < 4.00
COc1nc(Nc2ccc(-c3nc4ccccc4s3)cc2)c2cc[nH]c2n1 | < 5.00
CN(C(=O)c1ccccc1)c1ccc2c(c1)[nH]/c(=N\C(=O)c1ccc(N3CCCCC3)s1)n2CCC(N)=O | < 5.22

Please give measured pIC50 of the following entry: COC(=O)c1cccc(Oc2nc[nH]c(=O)c2-c2ccccc2)c1
< 4.40

Please give measured pIC50 of the following entry: CN(C(=O)c1ccccc1)c1ccc2c(c1)nc(NC(=O)c1ccc(-c3ccc(F)nc3)s1)n2CCC(N)=O
< 5.22

Please give measured pIC50 of the following entry: CC(=O)/C=C/c1c(Oc2cc(C(F)(F)F)ccc2Cl)nc[nH]c1=O
< 4.40

Please give measured pIC50 of the following entry: CN(C(=O)c1ccccc1)c1ccc2c(c1)nc(NC(=O)c1ccc(OCc3ccccc3)s1)n2CCC(N)=O
< 5.22

Please give measured pIC50 of the following entry: CCN(CC)CCCNc1ncc2cc(-c3c(Cl)cccc3Cl)c(NC(=O)NC(C)(C)C)nc2n1
< 4.30

Please give measured pIC50 of the following entry: Cc1n[nH]c2cc(Nc3nc(NC4CC4)c4occc4n3)ccc12
< 5.00

====

Please find below IC50 measurements for Insulin receptor (Homo sapiens, UniProt P06213), combined from several publications.

Field: example entries. Status: answers known.
compound | meas-value
NC(=O)c1ccc2c(c1)NC(=O)/C2=C(\Nc1ccc(CN2CCCCC2)cc1)c1ccccc1 | > 10 µM
O=C1Cc2cnc(Nc3cccc(O)c3)nc2-c2cnccc2N1 | > 100 µM
CC(=O)/C=C/c1c(Oc2ccc(O)cc2)nc[nH]c1=O | > 40 µM
O=C1Cc2cnc(Nc3cccc(O)c3)nc2-c2ccccc2N1 | > 100 µM
CC(=O)/C=C/c1c(Oc2ccc(C)cc2)nc[nH]c1=O | > 40 µM

Look up Insulin receptor (Homo sapiens, UniProt P06213) data: IC50 of CCC(C)COc1ccccc1/C=C1/SC(=O)NC1=O (stereo unspecified) , then report it.
> 100 µM

====

pIC50: −log10 of the molar value.
Please find below pIC50 measurements for Insulin receptor (Homo sapiens), combined from several publications.

Field: example entries. Status: answers known.
given-smiles | pIC50
O=C1Cc2cnc(Nc3ccccc3Br)nc2-c2ccccc2N1 | < 4.00
Cc1cc(O)ccc1Nc1ncc2c(n1)-c1ccccc1NC(=O)C2 | < 4.00
Cc1cc(CN2CCN(C)CC2)ccc1NC(=O)c1cc(-c2ccc3c(c2)OCO3)cnc1O | < 4.40

Look up Insulin receptor (Homo sapiens) data: pIC50 of CC(=O)/C=C/c1c(Oc2c(Cl)cccc2Cl)nc[nH]c1=O , then report it.
< 4.40

====

Please find below IC50 measurements for Insulin receptor (Homo sapiens, UniProt P06213), combined from several publications.

given-smiles | system-tested | IC50
O=C1NC(=O)/C(=C\c2ccc(-c3cccc(Cl)c3Cl)o2)S1 | Insulin receptor (Homo sapiens, UniProt P06213) | > 100 µM

Please give measured IC50 of the following entry: COC(=O)c1cccc(Oc2nc[nH]c(=O)c2/C=C/C(C)=O)c1
> 40 µM

Please give measured IC50 of the following entry: O=C1Cc2cnc(Nc3ccccc3)nc2-c2ccccc2N1
> 100 µM

Please give measured IC50 of the following entry: CN(C(=O)c1ccccc1)c1ccc2c(c1)[nH]/c(=N\C(=O)c1ccc(-c3csc(N)n3)s1)n2CCC(N)=O
> 6 µM

Please give measured IC50 of the following entry: CC(=O)/C=C/c1c(Oc2c(C)cc(C(C)=O)cc2C)nc[nH]c1=O
> 40 µM

Please give measured IC50 of the following entry: CN1CCN(c2ccnc(Nc3ccc(-c4nc5ccccc5s4)cc3)n2)CC1
> 10 µM

====

Please find below IC50 measurements for Insulin receptor (Homo sapiens, UniProt P06213), combined from several publications.

Field: example entries. Status: answers known.
molecule | system-tested | IC50
CCOC(=O)/C=C/c1c(Oc2ccc(C)cc2)nc[nH]c1=O | Insulin receptor (Homo sapiens, UniProt P06213) | > 40 µM
Cc1cc2c(Nc3ccc(-c4nc5ccccc5s4)cc3)ncnc2cc1Cl | Insulin receptor (Homo sapiens, UniProt P06213) | > 10 µM
CC(=O)c1ccc(C(=O)Nc2nc3cc(N(C)C(=O)C4CCCCC4)ccc3n2CCC(N)=O)cc1 | Insulin receptor (Homo sapiens, UniProt P06213) | > 10 µM
COC(=O)c1cccc(Oc2nc[nH]c(=O)c2-c2cccc(N)c2)c1 | Insulin receptor (Homo sapiens, UniProt P06213) | > 40 µM
CN(C(=O)c1ccccc1)c1ccc2c(c1)[nH]/c(=N\C(=O)c1ncco1)n2CCC(N)=O | Insulin receptor (Homo sapiens, UniProt P06213) | > 6 µM

Please give measured IC50 of the following entry: CC(C)COC(=O)Nc1ccc(-c2cnc3c(-c4ccc(N5CCN(C)CC5)cc4)cnn3c2N)cc1
> 10 µM

Please give measured IC50 of the following entry: O=C1Cc2cnc(Nc3ccc(Cl)cc3)nc2-c2ccccc2N1
> 100 µM

Please give measured IC50 of the following entry: CN(C)C(=O)N1CCC(c2nc(-c3cc4ccccc4[nH]3)c3c(N)nccn23)CC1
> 30 µM

Please give measured IC50 of the following entry: CN(c1ccc(F)c(NC(=O)c2cccc(OC(C)(C)C#N)c2Cl)c1)c1ccc2nc(NC(=O)C3CC3)sc2n1
> 10 µM

Please give measured IC50 of the following entry: COc1ccc(Nc2ncc3c(n2)-c2cnccc2NC(=O)C3)cc1
> 100 µM

Please give measured IC50 of the following entry: CC1(C)c2cc(OCCN3CCOCC3)ccc2C(=O)c2c1oc1cc(C#Cc3cc(OCC4CC4)ccn3)ccc21
> 10 µM

Please give measured IC50 of the following entry: Brc1cccc(Nc2ncnc3cc4[nH]cnc4cc23)c1
> 50 µM

Please give measured IC50 of the following entry: COc1cc(Oc2nc[nH]c(=O)c2/C=C/C(C)=O)c(C(C)=O)cc1OC
> 40 µM

Please give measured IC50 of the following entry: CN1CCN(c2ccc(OC(F)(F)F)c(Nc3nccc(-c4cc(C(N)=O)cn4C)n3)c2)CC1
> 10 µM

Please give measured IC50 of the following entry: CC(=O)/C=C/c1c(Oc2ccc(F)cc2)nc[nH]c1=O
> 40 µM

Please give measured IC50 of the following entry: c1ccc2sc(-c3ccc(Nc4ncnc5ccsc45)cc3)nc2c1
> 10 µM
